Target: human 5-HT2C-INI (Homo sapiens, UniProt P28335)
Sequence (P28335 33-458): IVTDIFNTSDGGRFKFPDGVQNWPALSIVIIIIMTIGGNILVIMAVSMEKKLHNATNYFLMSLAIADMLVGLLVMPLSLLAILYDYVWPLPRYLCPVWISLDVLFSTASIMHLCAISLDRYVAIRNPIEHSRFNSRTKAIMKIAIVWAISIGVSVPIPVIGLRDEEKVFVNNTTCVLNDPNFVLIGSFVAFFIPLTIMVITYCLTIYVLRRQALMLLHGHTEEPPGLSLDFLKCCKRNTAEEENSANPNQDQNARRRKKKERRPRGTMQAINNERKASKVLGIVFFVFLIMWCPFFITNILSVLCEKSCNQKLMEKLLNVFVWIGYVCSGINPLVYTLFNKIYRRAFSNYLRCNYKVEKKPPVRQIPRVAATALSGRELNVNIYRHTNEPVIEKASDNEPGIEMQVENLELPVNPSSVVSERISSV
Assay: Calcium flux (FLIPR) assay, human 5-HT2C-INI stably expressed in HEK-293 (Flp-In-293) cells
Settings: human 5-HT2C-INI in HEK-293 cells, FLIPR; normalized to 5-HT

# Compound, Emax, % 5-HT 5-HT2C
measured = [
    ("C=C(C)COc1ccc(Cl)cc1C1CC1CN (single isomer, unassigned; (+)) [(+)-Example 24]", "(90%) % 5-HT"),
    ("CCOc1ccc(Cl)c(F)c1C1CC1CN (single isomer, unassigned; (-)) [(−)-Example 30]", "(90%) % 5-HT"),
]
